Test system: PANC-1 pancreatic cancer cells
assayMethodText: cytotoxicity IC50, PANC-1 pancreatic cancer cells
Format: cell-based
measurementConditions: Homo sapiens; pancreatic cancer (PANC-1)
measurementLabel: pIC50
Hey, just a heads up that pIC50 is the negative log base 10 of the concentration in molar.

Can you look up the measured pIC50 of O=C1C2=C3C4=[N+](CCc5c[nH]c1c54)[C@@H]1C[C@]34S[C@@H](C=C4C=C1Br)N2 [Aleutianamine] for me?
7.60

----------
Test system: human HCT-116 colon cancer cells
assayMethodText: cytotoxicity IC50, HCT-116 colon cancer cells
Format: cell-based
measurementConditions: colon cancer (H116 / HCT-116)
measurementLabel: pIC50
In simple prose, pIC50 is minus the logarithm base ten of a concentration in moles per litre.

Which pIC50 is reported for this compound? O=C1C2=C3C4=[N+](CCc5c[nH]c1c54)[C@@H]1C[C@]34S[C@@H](C=C4C=C1Br)N2 [Aleutianamine]
6.00
